Tested on: M14 melanoma
Assay explanation: NCI-60 one-dose screen, 48 h (100 = growth as untreated, 0 = no growth, -100 = all killed)
Conditions used: 10 µM unless noted
Compounds without any hit were thinned out: in the full panel of roughly 83,000, 20% have a hit.
Each entry belongs to exactly one class, chosen by where its growth falls: L (below 30%), M (30% to below 90%), H (90% or more)

# Query smiles, Assay target, Class name
rows = [
    ("Cc1ccc(-n2c(=S)[nH]c3sc4c(c3c2=O)CCC(=O)C4)cc1", "M14 melanoma", "L"),
    ("COc1cccc(NC(=O)Cn2cc(CN3CCN(c4ccnc5cc(Cl)ccc45)CC3)nn2)c1", "M14 melanoma", "H"),
    ("O=C(/C=C/c1ccc(Cl)cc1)c1cccc(Nc2nc(Nc3ccccc3)nc(Nc3ccccc3)n2)c1", "M14 melanoma", "H"),
    ("CN1CCN(c2ccc(NC(=O)c3cncnc3Nc3ccc(OCc4ccccn4)c(Cl)c3)cc2)CC1", "M14 melanoma", "L"),
    ("C=CCc1c2c(c(OC)c3ccoc13)C(=O)/C(=C/c1ccccc1OC)O2", "M14 melanoma", "M"),
    ("COC(=O)CNC(=O)[C@H](Cc1ccccc1)NCc1ccncc1", "M14 melanoma", "H"),
    ("O=C1/C(=C/c2ccccc2Br)COc2ccc(O)c(O)c21", "M14 melanoma", "M"),
    ("O=C(Nc1ncc(Cc2ccc(Cl)c(C(F)(F)F)c2)s1)c1ccc2nnsc2c1", "M14 melanoma", "M"),
]

Data request: Please report the category associated with C#CCOc1ccc2ncnc(Nc3ccc(NC(=O)CCl)cc3)c2c1 , nothing else.
Data returned: L

----------
System: UACC-257 melanoma
Assay explanation: NCI-60 one-dose screen, 48 h
Conditions used: 10 µM unless noted
About 83,000 compounds went through this panel and 20% of them were active in at least one assay; those are over-represented in the sample as a whole. Activity calls are given as the source filed them. The calls were made as follows: active = growth percent below 10; inactive = the rest.
The reply should be one of these categories: active, inactive

# Molecule, Class name
measured = [
    ("CN1CCN(c2ccc(NC(=O)c3cncnc3Nc3ccc(OCc4ccccn4)c(Cl)c3)cc2)CC1", "inactive"),
    ("O=C(CSc1nc2ccc([N+](=O)[O-])cc2[nH]1)Nc1cccc(C(F)(F)F)c1", "inactive"),
    ("Cc1ccc(-c2csc(NC(=O)CN3CCN(c4cc5c(cc4F)c(=O)c(C(=O)O)cn5C4CC4)CC3)n2)cc1", "active"),
    ("O=C(NNc1nccc(Nc2ccc(S(=O)(=O)Nc3ccncc3)cc2)n1)c1ccccc1", "inactive"),
]

Data request: Identify the outcome logged in this assay for the molecule shown: O=C1c2cccc(NCCN=Cc3cc(O)ccc3O)c2C(=O)c2c(NCCN=Cc3cc(O)ccc3O)cccc21
Data returned: inactive

Data request: Which outcome did this test record for the molecule Cn1c(-c2ccc(Br)cc2)c(O)c(=O)c2c(F)cccc21 ?
Data returned: inactive

Data request: Hey, what did the test say about O=C(Nc1ncc(Cc2ccc(Cl)c(C(F)(F)F)c2)s1)c1ccc2nnsc2c1 ?
Data returned: inactive

Data request: Call for entry C#Cc1cccc(Nc2ncnc3ccc(-c4cncc(NS(C)(=O)=O)c4)cc23)c1 :
Data returned: inactive

Data request: Outcome? CC(C)=CCC[C@](C)(O)[C@H]1CC[C@]2(C)[C@@H]1CC[C@@H]1[C@@]3(C)Cc4nccnc4C(C)(C)[C@@H]3CC[C@]12C
Data returned: inactive

// data source = PubChem BioAssay (NCI)
